test system: LNCaP prostate cells; assay: Phosphotyrosyl protein expression in LNCaP prostate cells (SDS-PAGE, anti-phosphotyrosine immunoblot); format: cell-based, human; conditions: of sixteen bands in dividing LNCaP cells, 15 to 90 kDa
Measurement Name: number of phosphotyrosylprotein bands decreased in staining intensity / affected

[[record]]
compound = "CC[C@H](CC[C@@H](C)[C@H]1CC[C@H]2[C@@H]3CC=C4C[C@@H](O)CC[C@]4(C)[C@H]3CC[C@]12C)C(C)C"
study_target = "LNCaP prostate cells"
readout_value = "four"

[[record]]
compound = "CC(C)(C)NC(=O)[C@H]1CC[C@H]2[C@@H]3CC[C@H]4NC(=O)C=C[C@]4(C)[C@H]3CC[C@]12C [finasteride, Finasteride]"
study_target = "LNCaP prostate cells"
readout_value = "three"

[[record]]
compound = "C[C@H]1[C@H](C)CC[C@]2(C(=O)O)CC[C@]3(C)C(=CC[C@@H]4[C@@]5(C)CC[C@H](O)C(C)(C)[C@@H]5CC[C@]43C)[C@H]12"
study_target = "LNCaP prostate cells"
readout_value = "ten"

[[record]]
compound = "C/C1=C2/[N-][C@H]([C@H](CC(N)=O)[C@@]2(C)CCC(=O)NC[C@@H](C)OP(=O)([O-])O[C@H]2[C@@H](O)[C@@H](n3cnc4cc(C)c(C)cc43)O[C@@H]2CO)[C@]2(C)N=C(/C(C)=C3N=C(/C=C4N=C1[C@@H](CCC(N)=O)C\\4(C)C)[C@@H](CCC(N)=O)[C@]\\3(C)CC(N)=O)[C@@H](CCC(N)=O)[C@]2(C)CC(N)=O.[CH3-].[Co]"
study_target = "LNCaP prostate cells"
readout_value = "three"

